Recorded relative viability, one value per entry.
test system: PC-3 [JPC-3]; experiment: relative viability (nuclei count vs DMSO), 5 days (fraction); higher = more cells survive; conditions: first compound 0.01581 µM
Please reply with the number alone, leaving off any unit.

Task: API: value(readout= relative viability, system= PC-3 [JPC-3], query= CC1(C)CCC(c2ccc(Cl)cc2)=C(CN2CCN(c3ccc(C(=O)NS(=O)(=O)c4ccc(N[C@H](CCN5CCOCC5)CSc5ccccc5)c(S(=O)(=O)C(F)(F)F)c4)cc3)CC2)C1 [Navitoclax] + CC(=O)Nc1cccc(-n2c(=O)n(C3CC3)c(=O)c3c(Nc4ccc(I)cc4F)n(C)c(=O)c(C)c32)c1 [Trametinib] (partner 0.02 µM) )
Output: 0.714
